tested on: Fibroblast; experiment: Multiplex assay against human fibroblast; assay type: toxicity, cell-based; conditions: 48 h, 10 µM, compound concentration 10 uM, replicate 2
Entries annotated with measured Population Mitochondria Different-Phenotype (%)
property: Population Mitochondria Different-Phenotype (%)

>>> observed("CC(C)OC(=O)N1CCC(Oc2ncnc3c2cnn3-c2ccc(S(C)(=O)=O)cc2F)CC1")
4
>>> observed("COC(=O)C1=C(C)NC(C)=C(C(=O)OCCCN2CCC(c3ccccc3)(c3ccccc3)CC2)[C@H]1c1cccc([N+](=O)[O-])c1")
64
>>> observed("Cl.O=C(O)c1cc(-c2ccc(C3CCNCC3)cc2)c2ccc(-c3ccc(C(F)(F)F)cc3)cc2c1")
12
>>> observed("Cc1ccc2c(c1)c1c(n2CCc2ccc(C)nc2)CCN(C)C1 [LATREPIRDINE]")
9

====

Entries annotated with measured Population Normal (%)
tested on: Fibroblast; assay: Multiplex assay against human fibroblast; format: toxicity, cell-based; details: 12 h, 10 µM, compound concentration 10 uM, replicate 2
property: Population Normal (%)

>>> observed("O=c1cc(N2CCOCC2)oc2c(-c3cccc4c3sc3ccccc34)cccc12")
83
>>> observed("Cl.O=C(O)c1cc(-c2ccc(C3CCNCC3)cc2)c2ccc(-c3ccc(C(F)(F)F)cc3)cc2c1")
85
>>> observed("CC(C)OC(=O)N1CCC(Oc2ncnc3c2cnn3-c2ccc(S(C)(=O)=O)cc2F)CC1")
93
>>> observed("COC(=O)C1=C(C)NC(C)=C(C(=O)OCCCN2CCC(c3ccccc3)(c3ccccc3)CC2)[C@H]1c1cccc([N+](=O)[O-])c1 [NIGULDIPINE]")
87
>>> observed("CC(C)Oc1ccccc1C(=O)Nc1ccccc1C(=O)Nc1cccc(S(=O)(=O)C(F)(F)F)c1")
96
>>> observed("Cc1ccc2c(c1)c1c(n2CCc2ccc(C)nc2)CCN(C)C1 [LATREPIRDINE]")
91
>>> observed("Cc1ccc(C)c(Oc2ccncc2C(=O)N2CCN(C3CC3)c3ccccc32)c1")
96
>>> observed("C=CC(=O)Nc1ccc2[nH]c(=O)n(C3CCN(Cc4ccc(-c5nc6cc[nH]c(=O)c6cc5-c5ccccc5)cc4)CC3)c2c1 [Borussertib]")
71

====

system: HEK-293T; assay: Multiplex assay against HEK293T; type: toxicity, cell-based; settings: human, 12 h, 1 µM, compound concentration 1 uM, replicate 2
Entries annotated with measured Total Cell Count
property: Total Cell Count

>>> observed("O=c1cc(N2CCOCC2)oc2c(-c3cccc4c3sc3ccccc34)cccc12")
224
>>> observed("CC(C)c1noc(N2CCC(COc3ccc(-c4ccc(S(C)(=O)=O)cc4)nc3)CC2)n1")
228
>>> observed("Cc1nc(N2CC[C@H](O)C2)ncc1-c1cc(C(F)(F)F)cc2[nH]ncc12")
1293
>>> observed("Cl.O=C(O)c1cc(-c2ccc(C3CCNCC3)cc2)c2ccc(-c3ccc(C(F)(F)F)cc3)cc2c1")
178
>>> observed("O=c1[nH]c2ccccc2n1C1CCN(Cc2ccc(-c3[nH]c4cc5ncnc5cc4nc3-c3ccccc3)cc2)CC1")
1621
>>> observed("Cc1cccc(CN2CCN(C(c3ccccc3)c3ccc(Cl)cc3)CC2)c1.Cl.Cl (centres undefined)")
170
>>> observed("COc1cc(Nc2nccc(-c3cnn4nc(OC)ccc34)n2)cc(C(F)(F)F)c1")
192
>>> observed("CC(C)Oc1ccccc1C(=O)Nc1ccccc1C(=O)Nc1cccc(S(=O)(=O)C(F)(F)F)c1")
214
>>> observed("Cc1ccc2c(c1)c1c(n2CCc2ccc(C)nc2)CCN(C)C1 [LATREPIRDINE]")
209
